Each entry below lists one item and its recorded Kd value.
EXPERIMENTAL TARGET: T1, CD96 extracellular region with His tag (CD96-His) (human, UniProt P40200 22-519)
T1 construct: also called CD96-ECD-His; Bio-CD96-His (biotin-labelled form)
T1 sequence: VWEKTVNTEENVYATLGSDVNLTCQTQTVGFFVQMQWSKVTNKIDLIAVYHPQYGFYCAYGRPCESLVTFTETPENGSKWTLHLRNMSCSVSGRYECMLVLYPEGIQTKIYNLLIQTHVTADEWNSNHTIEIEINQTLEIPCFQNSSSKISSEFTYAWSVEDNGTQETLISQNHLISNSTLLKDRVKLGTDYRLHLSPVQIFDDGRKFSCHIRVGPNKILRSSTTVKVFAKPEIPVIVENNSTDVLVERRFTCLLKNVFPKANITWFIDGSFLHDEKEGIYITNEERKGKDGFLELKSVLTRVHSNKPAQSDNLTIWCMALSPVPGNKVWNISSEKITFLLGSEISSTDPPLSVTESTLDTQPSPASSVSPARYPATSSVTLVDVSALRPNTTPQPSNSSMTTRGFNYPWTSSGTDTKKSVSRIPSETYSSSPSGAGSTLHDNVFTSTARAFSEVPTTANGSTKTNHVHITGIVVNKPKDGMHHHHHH
MEASUREMENT NOTES: SPR (Biacore), antibody captured, CD96-ECD-His as mobile phase
From the text: Protein A biosensor chip was used to capture antibodies to be tested, then CD96 antigen was flowed on the surface of the chip, and real time reaction signal was detected by Biacore to obtain the binding and dissociation curve. After the dissociation of each experimental cycle was completed, the biosensor chip was washed and regenerated with a glycine-hydrochloric acid regeneration solution (pH 1.5).

- BINDER: "h1719-016 (antibody, V domains shown, Only variable regions are tied to this name) VH: EVTLKESGPVLVKPTETLTLTCTVSGFSLSSYGVSWVRQPPGKGLEWLGVIWGDGNTNYHSVLISRLTISKDTSKSQVVLTLTNMDPVDTATYYCAKQNYYGSRYGYPIDYWGQGTTVTVSS VL: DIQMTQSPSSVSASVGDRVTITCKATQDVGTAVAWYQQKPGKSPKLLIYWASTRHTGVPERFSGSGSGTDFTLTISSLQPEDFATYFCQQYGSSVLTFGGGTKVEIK"
  UNITS LABEL: "nM"
  Kd: 90.7
- BINDER: "h1719-008 (antibody, V domains shown, Only variable regions are tied to this name) VH: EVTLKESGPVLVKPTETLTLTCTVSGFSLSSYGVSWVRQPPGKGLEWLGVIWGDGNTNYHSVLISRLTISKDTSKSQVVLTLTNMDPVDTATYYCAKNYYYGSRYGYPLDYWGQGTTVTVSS VL: DIQMTQSPSSVSASVGDRVTITCKATQDVGTAVAWYQQKPGKAPKLLIYWASTRHTGVPSRFSGSGSGTDFTLTISSLQPEDFATYYCQQYGSSVLTFGGGTKVEIK"
  UNITS LABEL: "nM"
  Kd: 17.6
- BINDER: "h1721-002 (antibody, V domains shown, Only variable regions are tied to this name) VH: EVTLKESGPVLVKPTETLTLTCTVSGFSLSSYGVNWIRQPPGKALEWLGVIWGDGSTNYHSALISRLTISKDTSKSQVVLTMTNMDPVDTATYYCAKNYFYGSRYGYAMDSWGQGTTVTVSS VL: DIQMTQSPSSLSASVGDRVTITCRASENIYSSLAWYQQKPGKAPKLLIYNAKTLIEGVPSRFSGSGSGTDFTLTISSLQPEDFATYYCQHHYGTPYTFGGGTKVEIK"
  UNITS LABEL: "nM"
  Kd: 2.2
- BINDER: "h1718-014 (antibody, V domains shown, Only variable regions are tied to this name) VH: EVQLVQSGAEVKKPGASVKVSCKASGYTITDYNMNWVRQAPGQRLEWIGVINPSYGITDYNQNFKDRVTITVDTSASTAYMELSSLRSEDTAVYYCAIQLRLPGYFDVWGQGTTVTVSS VL: DIQMTQSPSSLSASVGDRVTITCKASQDINLYLNWFQQKPGKAPKTLIYRANRLVDGVPSRFSGSGSGQDYTLTISSLQPEDFATYYCLKYDEFPYTFGGGTKVEIK"
  UNITS LABEL: "nM"
  Kd: 4.31
- BINDER: "h1722-010 (antibody, V domains shown, Only variable regions are tied to this name; also called M722-010) VH: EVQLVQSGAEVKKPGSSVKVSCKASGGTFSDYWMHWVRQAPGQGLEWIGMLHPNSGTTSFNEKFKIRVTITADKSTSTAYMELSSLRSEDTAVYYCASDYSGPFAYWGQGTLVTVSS VL: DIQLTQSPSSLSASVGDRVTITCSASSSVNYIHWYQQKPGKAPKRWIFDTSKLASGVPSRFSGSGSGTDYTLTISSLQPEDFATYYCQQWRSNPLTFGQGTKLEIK"
  UNITS LABEL: "nM"
  Kd: 0.86
